The measurements presented in this section are drawn from patent US20100152259A1.

System: rabbit aortic slices
Experiment: vessel relaxation assay (tissue-based, rabbit aortic slices)
Type: cell-based
Settings: Oryctolagus cuniculus
quantity_kind: EC50 (µM)
Kindly answer with a numeric value in µM, unit omitted.

Sure, the documented EC50 for CCCCc1nc(Cl)c(C(=O)OC(C)OC(=O)OCCC(C)(C)CC(CO[N+](=O)[O-])O[N+](=O)[O-])n1Cc1ccc(-c2ccccc2-c2nnn[nH]2)cc1 (stereo not drawn) [Example 4] is 1.1

Sure, the documented EC50 for CCOc1nc2cccc(C(=O)OC(C)(C)OC(=O)OCCOC[C@H](CO[N+](=O)[O-])O[N+](=O)[O-])c2n1Cc1ccc(-c2ccccc2-c2nnn[nH]2)cc1 [Example 11] is 2.3

Sure, the documented EC50 for CCOc1nc2cccc(C(=O)OC(C)(C)OC(=O)OCCOCC(CO[N+](=O)[O-])O[N+](=O)[O-])c2n1Cc1ccc(-c2ccccc2-c2nnn[nH]2)cc1 (stereo not drawn) [Example 10] is 2.38

Sure, the documented EC50 for CCCCc1nc(Cl)c(C(=O)OC(C)OC(=O)OCCOCC(CO[N+](=O)[O-])O[N+](=O)[O-])n1Cc1ccc(-c2ccccc2-c2nnn[nH]2)cc1 (stereo not drawn) [Compound 3] is 5

Sure, the documented EC50 for CCOc1nc2cccc(C(=O)OC(C)(C)OC(=O)OCCCCC(CO[N+](=O)[O-])O[N+](=O)[O-])c2n1Cc1ccc(-c2ccccc2-c2nnn[nH]2)cc1 (stereo not drawn) [Example 8] is 0.37

Sure, the documented EC50 for CCOc1nc2cccc(C(=O)OC(C)(C)OC(=O)OCCCC[C@H](CO[N+](=O)[O-])O[N+](=O)[O-])c2n1Cc1ccc(-c2ccccc2-c2nnn[nH]2)cc1 [Example 9] is 0.99

====

Test system: rabbit aortic slices
Assay: vessel relaxation assay (tissue-based, rabbit aortic slices)
Assay type: cell-based
Conditions: Oryctolagus cuniculus
quantity_kind: pEC50
Please express pEC50 as -log10 of the molar concentration.

Sure, the documented pEC50 for CCOc1nc2cccc(C(=O)OC(C)(C)OC(=O)OCC[C@@H](CO[N+](=O)[O-])O[N+](=O)[O-])c2n1Cc1ccc(-c2ccccc2-c2nnn[nH]2)cc1 is 5.43

Sure, the documented pEC50 for CCCCc1nc(Cl)c(C(=O)OCCOCCO[N+](=O)[O-])n1Cc1ccc(-c2ccccc2-c2nn[nH]n2)cc1 [Compound 1, reference compound] is 5.22

Sure, the documented pEC50 for CCCCc1nc(Cl)c(C(=O)OC(C)OC(=O)OCCCC[C@H](CO[N+](=O)[O-])O[N+](=O)[O-])n1Cc1ccc(-c2ccccc2-c2nn[nH]n2)cc1 (single isomer, unassigned) is 6.00
